- Test Target: Myeloperoxidase (Homo sapiens, UniProt P05164)
- Sequence (P05164 whole entry): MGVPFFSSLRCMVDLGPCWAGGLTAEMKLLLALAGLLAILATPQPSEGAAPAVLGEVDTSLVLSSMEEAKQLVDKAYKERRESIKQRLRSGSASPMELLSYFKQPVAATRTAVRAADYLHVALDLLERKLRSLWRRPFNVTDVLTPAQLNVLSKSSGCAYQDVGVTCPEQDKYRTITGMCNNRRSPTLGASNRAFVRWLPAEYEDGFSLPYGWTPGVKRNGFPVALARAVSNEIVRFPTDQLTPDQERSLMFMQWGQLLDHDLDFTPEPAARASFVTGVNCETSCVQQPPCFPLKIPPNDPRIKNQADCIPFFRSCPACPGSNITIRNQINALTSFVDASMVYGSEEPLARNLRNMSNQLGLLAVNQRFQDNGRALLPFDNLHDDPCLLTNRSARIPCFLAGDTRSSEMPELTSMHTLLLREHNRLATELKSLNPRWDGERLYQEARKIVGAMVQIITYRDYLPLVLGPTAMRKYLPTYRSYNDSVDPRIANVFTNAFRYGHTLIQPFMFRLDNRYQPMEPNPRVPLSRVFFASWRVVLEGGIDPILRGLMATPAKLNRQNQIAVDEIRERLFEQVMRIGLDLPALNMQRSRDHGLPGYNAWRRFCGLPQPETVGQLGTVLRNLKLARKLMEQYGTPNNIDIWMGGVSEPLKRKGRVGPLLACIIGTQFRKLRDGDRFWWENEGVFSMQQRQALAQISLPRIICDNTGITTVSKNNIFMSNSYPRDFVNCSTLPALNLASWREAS
- Assay Summary: Inhibition of MPO (unknown origin)
Listing of recorded IC50 by entry.
Measure: IC50

Smi	Measure	Value Observed
Nc1ccc(S(=O)(=O)c2ccc(N)cc2)cc1	IC50	420 nM
CC(=O)Oc1ccccc1C(=O)O	IC50	200000 nM
CC(C)OCCn1c(=S)[nH]c(=O)c2[nH]ccc21	IC50	630 nM

###

- Test Target: Myeloperoxidase (Homo sapiens)
- Assay Summary: Inhibition of MPO in human neutrophils using H2O2 as substrate measured after 5 mins
pIC50: −log10 of the molar value.
Measure: pIC50

Smi	Test Target	Value Observed
NNC(=O)c1ccc(O)cc1	Myeloperoxidase (Homo sapiens)	5.70
